target: unphosphorylated c-KIT kinase (uKIT, Seq. ID no. 2) (Homo sapiens); construct: uKit with N-terminal GST fusion used for; experiment: uKit kinase assay (pyruvate kinase/lactate dehydrogenase coupled); conditions: ATP 2000 μM
pIC50: −log10 of the molar value.
List of pIC50 values.

compound: Cn1cnc(C(=O)Nc2cc(Oc3ccc(NC(=O)NC(=O)C(C)(C)C)nc3)ccn2)c1 [Example 59]
reading: 6.00 to 7.00
//
compound: Cc1nc(NC(=O)NC(=O)C(C)(C)C)ccc1Oc1ccnc(NC(=O)N2CCN(C)CC2)c1 [Example 69]
reading: < 6.00
//
compound: CN1CCC(NC(=O)c2cc(Oc3ccc(NC(=O)NC(=O)C(C)(C)C)nc3)ccn2)CC1 [Example 75]
reading: < 6.00
//
compound: O=C(NC(=O)C1CCOCC1)Nc1ccc(Oc2ccnc(NC(=O)C3CC3)c2)cn1 [Example 35]
reading: 6.00 to 7.00

[Q] I'd like to know its pIC50. The compound in question is CN1CCC(C(=O)Nc2cc(Oc3ccc(NC(=O)NC(=O)C(C)(C)C)nc3)ccn2)C1 (centres unmarked) [Example 55]
[A] < 6.00

[Q] Okay, and Cc1nc(NC(=O)NC(=O)C(C)(C)C)ccc1Oc1ccnc(NC(=O)N(C)C)c1 [Example 62] ?
[A] < 6.00

[Q] Now the same for COC1(C(=O)NC(=O)Nc2ccc(Oc3ccnc(NC(C)=O)c3)cn2)CCCC1 [Example 67]
[A] 6.00 to 7.00

[Q] Now consider CNC(=O)c1cc(Oc2ccc(NC(=O)NC(=O)C3(OC)CCCC3)nc2)ccn1 [Example 64] .
[A] 6.00 to 7.00

----------
# reported pIC50; entries follow
Target: unphosphorylated c-FMS kinase (uFMS, Seq. ID no. 1) (Homo sapiens)
Construct: purchased Millipore
Sequence (P07333 538-972): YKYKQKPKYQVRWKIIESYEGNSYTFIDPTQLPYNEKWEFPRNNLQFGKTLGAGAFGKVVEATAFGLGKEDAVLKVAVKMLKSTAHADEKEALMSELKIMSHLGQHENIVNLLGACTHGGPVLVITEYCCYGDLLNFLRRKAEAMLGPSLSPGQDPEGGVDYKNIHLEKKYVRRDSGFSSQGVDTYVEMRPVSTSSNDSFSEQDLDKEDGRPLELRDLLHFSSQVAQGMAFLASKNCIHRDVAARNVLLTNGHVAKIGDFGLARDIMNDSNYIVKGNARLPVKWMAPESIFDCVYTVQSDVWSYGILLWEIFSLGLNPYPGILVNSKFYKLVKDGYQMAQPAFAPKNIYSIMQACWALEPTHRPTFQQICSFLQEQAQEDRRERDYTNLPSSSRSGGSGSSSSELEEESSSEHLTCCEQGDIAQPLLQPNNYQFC
Experiment: uFMS kinase assay (pyruvate kinase/lactate dehydrogenase coupled)
Type: biochemical
Details: ATP 500 μM
pIC50: −log10 of the molar value.

compound: CNC(=O)Nc1cc(Oc2ccc(NC(=O)NC(=O)C(C)(C)C)nc2)ccn1 [Example 79]
readoutKind: pIC50
reading: > 8.00

compound: CC(C)C(=O)NC(=O)Nc1ccc(Oc2ccnc(NC(=O)N3CCN(C)CC3)c2)cn1 [Example 66]
readoutKind: pIC50
reading: > 8.00

compound: CC(=O)Nc1cc(Oc2ccc(NC(=O)NC(=O)C3(C)CCC3)nc2)ccn1 [Example 44]
readoutKind: pIC50
reading: > 8.00

compound: COC1(C(=O)NC(=O)Nc2ccc(Oc3ccnc(NC(C)=O)c3)cn2)CC1 [Example 27]
readoutKind: pIC50
reading: 7.00 to 8.00

compound: COC(C)(C)C(=O)NC(=O)Nc1cc(C)c(Oc2ccnc(NC(C)=O)c2)cn1 [Example 38]
readoutKind: pIC50
reading: > 8.00

[Q] // lookup pIC50 | system=unphosphorylated c-FMS kinase (uFMS, Seq. ID no. 1) (Homo sapiens) | key= COC(C)(C)C(=O)NC(=O)Nc1ccc(Oc2ccnc(NC(=O)C3CC3)c2)cn1 [Example 31]
[A] > 8.00

[Q] Quick one: COC(C)(C)C(=O)NC(=O)Nc1ccc(Oc2ccnc(NC(=O)C3CCN(C)CC3)c2)cn1 [Example 40]
[A] 7.00 to 8.00

[Q] How about this compound: CC(=O)Nc1cc(Oc2ccc(NC(=O)NC(=O)C3CCOCC3)nc2)ccn1 [Example 5]
[A] 7.00 to 8.00

[Q] Check Cn1cnc(C(=O)Nc2cc(Oc3ccc(NC(=O)NC(=O)C(C)(C)C)nc3)ccn2)c1 [Example 59] too.
[A] > 8.00

[Q] Request: CC(=O)Nc1cc(Oc2ccc(NC(=O)NC(=O)C(C)(C)C)nc2C)ccn1 [Example 9]
[A] > 8.00

----------
molecular target: unphosphorylated PDGFRβ kinase (uPDGFRβ, Seq. ID No. 3) (Homo sapiens, UniProt P09619); experiment: Unphosphorylated PDGFRβ kinase assay (pyruvate kinase/lactate dehydrogenase coupled); conditions: ATP 500 μM
Sequence (P09619 557-1105): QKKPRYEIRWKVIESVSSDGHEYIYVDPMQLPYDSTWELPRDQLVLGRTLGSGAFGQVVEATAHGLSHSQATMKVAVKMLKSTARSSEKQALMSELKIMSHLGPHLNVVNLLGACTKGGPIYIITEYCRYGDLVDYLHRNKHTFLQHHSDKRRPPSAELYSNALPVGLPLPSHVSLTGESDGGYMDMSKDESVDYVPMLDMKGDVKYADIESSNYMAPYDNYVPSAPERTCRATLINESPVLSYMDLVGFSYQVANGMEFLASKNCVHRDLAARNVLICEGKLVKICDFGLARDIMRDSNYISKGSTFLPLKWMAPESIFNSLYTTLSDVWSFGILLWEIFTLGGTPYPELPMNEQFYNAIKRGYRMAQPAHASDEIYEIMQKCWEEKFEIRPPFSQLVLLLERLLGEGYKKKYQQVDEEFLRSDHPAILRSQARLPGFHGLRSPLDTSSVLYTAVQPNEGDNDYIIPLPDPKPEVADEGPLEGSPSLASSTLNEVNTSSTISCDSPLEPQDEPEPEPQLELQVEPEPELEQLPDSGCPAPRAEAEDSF
pIC50: −log10 of the molar value.
readoutKind: pIC50

Illustrative cases are given below, each with its answer.
compound: CN(C)C1CC(C(=O)Nc2cc(Oc3ccc(NC(=O)NC(=O)C(C)(C)C)nc3)ccn2)C1 (centres unmarked) [Example 60]
reading: 6.00 to 7.00

compound: CC(=O)Nc1cc(Oc2ccc(NC(=O)NC(=O)C(C)(C)C)nc2)ccn1 [Example 3]
reading: < 6.00

compound: CN1CCC(C(=O)Nc2cc(Oc3ccc(NC(=O)NC(=O)C4(C)CC4)nc3)ccn2)CC1 [Example 33]
reading: 6.00 to 7.00

[Q] For CN(C)C1CC(C(=O)Nc2cc(Oc3ccc(NC(=O)NC(=O)C(C)(C)C)nc3)ccn2)C1 (centres unmarked) [Example 61] , what is its reported pIC50?
[A] 6.00 to 7.00

[Q] Could you do the same for Cc1nc(NC(=O)NC(=O)C(C)(C)C)ccc1Oc1ccnc(NC(=O)N2CCOCC2)c1 [Example 63] , please?
[A] < 6.00

[Q] Try CC(=O)Nc1cc(Oc2ccc(NC(=O)NC(=O)C(C)C)nc2)ccn1 [Example 15] next.
[A] 6.00 to 7.00

[Q] // query: CCC(=O)Nc1cc(Oc2ccc(NC(=O)NC(=O)C3(C)CC3)nc2)ccn1 [Example 36]
[A] 7.00 to 8.00

[Q] Item: COC(C)(C)C(=O)NC(=O)Nc1cc(C)c(Oc2ccnc(NC(C)=O)c2)cn1 [Example 38]
[A] 7.00 to 8.00

----------
target: unphosphorylated c-KIT kinase (uKIT, Seq. ID no. 2) (Homo sapiens, UniProt P10721); construct: uKit with N-terminal GST fusion used for; test: uKit kinase assay (pyruvate kinase/lactate dehydrogenase coupled); conditions: ATP 2000 μM
Sequence (P10721 with tags, fused parts or gaps): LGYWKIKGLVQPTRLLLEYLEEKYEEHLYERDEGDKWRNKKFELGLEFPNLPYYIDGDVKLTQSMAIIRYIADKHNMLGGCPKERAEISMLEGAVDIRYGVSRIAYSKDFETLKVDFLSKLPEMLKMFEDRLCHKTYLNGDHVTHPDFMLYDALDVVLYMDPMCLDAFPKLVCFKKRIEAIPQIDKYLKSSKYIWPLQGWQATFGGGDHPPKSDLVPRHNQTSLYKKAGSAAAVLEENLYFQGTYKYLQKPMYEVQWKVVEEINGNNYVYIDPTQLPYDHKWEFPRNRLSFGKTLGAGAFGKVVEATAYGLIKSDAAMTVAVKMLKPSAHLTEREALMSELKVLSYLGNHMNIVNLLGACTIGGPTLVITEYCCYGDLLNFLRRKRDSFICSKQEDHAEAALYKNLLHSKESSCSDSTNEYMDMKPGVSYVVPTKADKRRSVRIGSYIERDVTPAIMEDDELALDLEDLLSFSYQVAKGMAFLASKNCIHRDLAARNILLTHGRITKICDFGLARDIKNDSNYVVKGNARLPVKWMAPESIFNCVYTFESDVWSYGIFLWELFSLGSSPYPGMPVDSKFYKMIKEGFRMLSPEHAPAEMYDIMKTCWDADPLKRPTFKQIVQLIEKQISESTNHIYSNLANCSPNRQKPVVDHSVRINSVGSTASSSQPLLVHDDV
readoutKind: IC50

compound: CC(=O)Nc1cc(Oc2ccc(NC(=O)NC(=O)C(C)(C)C)nc2)ccn1 [Example 3]
reading: > 1000 nM

[Q] // fetch unphosphorylated c-KIT kinase (uKIT, Seq. ID no. 2) (Homo sapiens, UniProt P10721) IC50 for CC(=O)Nc1cc(Oc2ccc(NC(=O)NC(=O)C(C)C)nc2C)ccn1 [Example 10]
[A] > 1000 nM

[Q] Query Cc1nc(NC(=O)NC(=O)C(C)(C)C)ccc1Oc1ccnc(NC(=O)C2CC2)c1 [Example 11] next
[A] > 1000 nM

[Q] // repeat for CC(=O)Nc1cc(Oc2ccc(NC(=O)NC(=O)CC3CCOCC3)nc2)ccn1 [Example 6] and report
[A] > 1000 nM

[Q] Entry to check: CC(=O)Nc1cc(Oc2ccc(NC(=O)NC(=O)C3CCCCC3)nc2)ccn1 [Example 1]
[A] 100 to 1000 nM

[Q] Query CNC(=O)c1cc(Oc2ccc(NC(=O)NC(=O)C3(C)CCOCC3)nc2)ccn1 [Example 70] next
[A] > 1000 nM

[Q] What do we get for CN(C)C(=O)Nc1cc(Oc2ccc(NC(=O)NC(=O)C3CCOCC3)nc2)ccn1 [Example 51] ?
[A] 100 to 1000 nM

[Q] Next up: CN(C)C(=O)Nc1cc(Oc2ccc(NC(=O)NC(=O)C3(C)CCOCC3)nc2)ccn1 [Example 65]
[A] 100 to 1000 nM

[Q] Now consider COC(C)(C)C(=O)NC(=O)Nc1ccc(Oc2ccnc(NC(C)=O)c2)c(C)n1 [Example 20] .
[A] > 1000 nM

[Q] Likewise for CC(C)(C)C(=O)NC(=O)Nc1ccc(Oc2ccnc(NC(=O)CC#N)c2)cn1 [Example 56] ?
[A] > 1000 nM

[Q] Continue with CC(C)(C)C(=O)NC(=O)Nc1ccc(Oc2ccnc(NC(=O)C3CC3)c2)cn1 [Example 18]
[A] 100 to 1000 nM

----------
target: unphosphorylated PDGFRβ kinase (uPDGFRβ, Seq. ID No. 3) (Homo sapiens, UniProt P09619); assay: Unphosphorylated PDGFRβ kinase assay (pyruvate kinase/lactate dehydrogenase coupled); settings: ATP 500 μM
Recorded IC50, one value per entry.

[Q] Returns the measured IC50 for the input compound. Input: CN(C)CC(=O)Nc1cc(Oc2ccc(NC(=O)NC(=O)C(C)(C)C)nc2)ccn1 [Example 54]
[A] > 1000 nM

[Q] Quick one: CCC(=O)Nc1cc(Oc2ccc(NC(=O)NC(=O)C(C)(C)OC)nc2)ccn1 [Example 37]
[A] 100 to 1000 nM

[Q] Same thing, different compound: CC(=O)Nc1cc(Oc2ccc(NC(=O)NC(=O)C3(C)CCC3)nc2)ccn1 [Example 44]
[A] 100 to 1000 nM

[Q] Again, but for Cc1nc(NC(=O)NC(=O)C(C)(C)C)ccc1Oc1ccnc(NC(=O)N2CCCC2)c1 [Example 71]
[A] 100 to 1000 nM

[Q] Entry CC(C)(C)C(=O)NC(=O)Nc1ccc(Oc2ccnc(NC(=O)N3CCNCC3)c2)cn1 [Example 83] please
[A] 100 to 1000 nM

[Q] Do the same for CC(=O)Nc1cc(Oc2ccc(NC(=O)NC(=O)C3CCOC3)nc2)ccn1 (stereo not drawn) [Example 22] please
[A] > 1000 nM

[Q] CN(C)[C@@H]1CCN(C(=O)Nc2cc(Oc3ccc(NC(=O)NC(=O)C(C)(C)C)nc3)ccn2)C1 [Example 68] ?
[A] 10 to 100 nM

[Q] # iterate: CC(=O)Nc1cc(Oc2ccc(NC(=O)NC(=O)C3(C)CCC3)nc2C)ccn1 [Example 43]
[A] 100 to 1000 nM

[Q] Thanks! And CC(=O)Nc1cc(Oc2ccc(NC(=O)NC(=O)C3CCCC3)nc2)ccn1 [Example 2] ?
[A] < 10 nM
